The entries below are paired with their reported protein stability index.
assay: protein stability index of a GFP-peptide fusion (GPS, HEK-293T) (PSI 1-6); higher = more stable; settings: treatment: MLN4924 1 uM, 8 h; c terminus: a fixed tail appended;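 note: 24-mer peptide tiles fused after GFP, lentivirally expressed, FACS-sorted into six equal bins by GFP/DsRed ratio, decoded by Illumina sequencing, PSI is the read-weighted mean bin number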
ASSAY ENDPOINT: protein stability index

{"columns": ["RESIDUE STRING", "ASSAY ENDPOINT", "ENDPOINT VALUE"],
 "data": [
  ["PEKIGTRFLLYTNENPNNFQILLL [PNLIPRP1]", "protein stability index", 2.48],
  ["LGKGAFSVVRRCVKVLAGQEYAAK [CAMK2A]", "protein stability index", 2.38],
  ["TFGFITMTPQLFINYKLKSVAHLP [CLPTM1]", "protein stability index", 2.92],
  ["EVDGLRGTNEALLRQLRELEEQFA [PRPH]", "protein stability index", 4.32],
  ["LSDLEDLEEEEEEEEEAEDEEVVA [IRX6]", "protein stability index", 5.81],
  ["VEVDENAYRCGSGMQMAEDSKSLK [NET1]", "protein stability index", 4.99],
  ["DYRGPDCRYLNFTKGEEISVYVKL [MIA2]", "protein stability index", 2.81],
  ["ILGRGLQEYQLPYQRVLPLPIFTP [TCAP]", "protein stability index", 2.37],
  ["TITAPPSRVLQNGGDKLETMPLYL [SCD]", "protein stability index", 3.43],
  ["KVQNECPGITRVYSIGRSVEGRHL [CPN1]", "protein stability index", 3.29],
  ["NGSYLELSSDRVANSSSEAPFPNV [ADAMTSL2]", "protein stability index", 4.28],
  ["REQKEKSPPDQPAVPHPPPSTPIK [ADD1]", "protein stability index", 5.53],
  ["VLRFLPAFVRMKQLIEEGYVGEPL [GFOD1]", "protein stability index", 2.17],
  ["LWRYRTITFSGRPSRVHASEVESA [FBXO39]", "protein stability index", 3],
  ["NRDSSMKLSFRARAYGFRGPGPQL [CHGA]", "protein stability index", 2.47],
  ["SPSGAALPLPLSLAPPPLPLPAAA [ZBTB22]", "protein stability index", 4.2],
  ["DRDGTINLSEFQHVISRSPDFASS [CIB1]", "protein stability index", 4.31]
]}

###

assay: protein stability index of a GFP-peptide fusion (GPS, HEK-293T) (PSI 1-6); higher = more stable; details: treatment: DMSO; c terminus: a fixed tail appended
We begin with a simple list: items and their reported protein stability index.

{"columns": ["RESIDUE STRING", "protein stability index"],
 "data": [
  ["PANLYVRELREVRRVPPRFSIPPT [PTPRD]", 2.95],
  ["REQKEKSPPDQPAVPHPPPSTPIK [ADD1]", 5.39],
  ["ENLIMFQNLANEEVRKLTQRLEEM [MATN2]", 3.58],
  ["QALGIPATECEFVGSLPVIVVGRL [LPCAT4]", 2.38]
]}

###

experiment: protein stability index of a GFP-peptide fusion (GPS, HEK-293T) (PSI 1-6); higher = more stable; details: treatment: MLN4924 1 uM, 8 h; c terminus: a fixed tail appended
Hi, to clarify the labels: condition met covers protein stability index from 4 upward, condition not met covers anything below 4.

{"columns": ["RESIDUE STRING", "GROUP"],
 "data": [
  ["AEPAMPGRLYVHPDSPATGAHWMR [TBX5]", "condition not met"],
  ["RLPRQNSDGGQKNKPREHIIDCGD [WSB1]", "condition met"],
  ["GNMANLSLHDHDGSSGASDQDTLA [DVL3]", "condition met"],
  ["QAKTHTDSSEKELEPEAAEEALEN [ACBD3]", "condition met"],
  ["AFADRDQSERQRHESQQLATETQA [TEKT4]", "condition met"],
  ["KIRDWYQRQAPGPARDYSQYYRTI [KRT17]", "condition not met"],
  ["MITLSEAYIQIWKRRDNDETNQQG [USP39]", "condition not met"],
  ["LKVGGILVMPIEDQLTQIMRTGQN [PCMTD1]", "condition not met"],
  ["ALGWAPAAPPPLKDDPEGDRDGCV [ZBED3]", "condition met"],
  ["GTIRPVRCPSSSLHMSQRERTWPP [C22orf15]", "condition not met"],
  ["GKSVSSSSSVETGPSVSEPPGLPR [SPATS1]", "condition met"],
  ["SSCTHVTGNYRKGNAHLGYSLVTH [ADAMTSL2]", "condition not met"],
  ["AAVPGTQLSPSPTPASQSPKKPPA [SNAP91]", "condition met"],
  ["RVQQHIESKLLGSNSSRMYFTQTL [MLH1]", "condition not met"],
  ["ECPTCGHSYNVTQRRPRVLSCLHS [RNF208]", "condition not met"],
  ["LGKLEATIKSLSAELLKANEIIKK [SASS6]", "condition not met"],
  ["DTLRRRLLAPEAGSHPQQTQKLEE [TOR1AIP2]", "condition met"],
  ["AVINWVKHAKKEREESLPNLLQYV [KLHL12]", "condition not met"],
  ["QSLNDRLASYLDRVRSLETENRRL [KRT18]", "condition not met"],
  ["LPSLGCRTSCSSRPCVPPSCHGYT [KRT34]", "condition not met"],
  ["QLELVILQSEPHRAGVQWKFAGSF [KCNK9]", "condition not met"],
  ["SQEPDPVQRLQAYTATEQEMQQQM [TRIM14]", "condition met"],
  ["TSAAYRYYIDDVFHALVREIRRKE [RIT1]", "condition not met"],
  ["EARSYLSEEMIAEFKAAFDMFDAD [TNNC2]", "condition met"],
  ["SNSQPTNESHSIKAILKNISVLAF [SLC29A1]", "condition not met"],
  ["IVCAQSSQSLWNRLSVLLNLLPAA [SMG5]", "condition not met"],
  ["IVRRRSRDVPESPQHAADTPKSGE [YJU2B]", "condition met"]
]}

###

test: protein stability index of a GFP-peptide fusion (GPS, HEK-293T) (PSI 1-6); higher = more stable; details: treatment: DMSO; c terminus: a fixed tail appended

{"columns": ["RESIDUE STRING", "protein stability index"],
 "data": [
  ["INSRRWCSNLTPNVPNVCRMYCSD [SPACA3]", 2.13],
  ["SSEAFHNYMNAAMVHINRALKLII [RTN3]", 2.62],
  ["TMNRRVCVLMLLAAWIGGFLHSLV [OR4A15]", 2.53],
  ["SSPQGKSGPEAARAGGWVSGEEFY [PKD2L1]", 4.51],
  ["LKVGGILVMPIEDQLTQIMRTGQN [PCMTD1]", 2.66],
  ["GKKEIKPFKRFLRKKSKPKKCVKK [SMOC2]", 3.1],
  ["EFFSANAISDQLLGAGSDLKDFTL [ADAMTSL2]", 2.97],
  ["IIKQLQKGVQQKRPSEAQSVILRR [DENND6A]", 3.08],
  ["KSDSPTGDVLLDETLKHIKATEPT [GOLPH3L]", 5.16],
  ["LVEDMVSQEEAQGLPSSELDAVEN [ZNF24]", 5.5]
]}

###

assay: protein stability index of a GFP-peptide fusion (GPS, HEK-293T) (PSI 1-6); higher = more stable; settings: treatment: MLN4924 1 uM, 8 h; c terminus: a fixed tail appended
Tag: 1 (yes) if measured protein stability index is not below 3, 0 (no) if it is.

{"columns": ["RESIDUE STRING", "GROUP"],
 "data": [
  ["SRTVRQFQFTDWPEQGVPKSGEGF [PTPRD]", "1 (yes)"],
  ["SASEEEDTKPKPTKRKRKGSSAVG [INTS3]", "1 (yes)"],
  ["SEEYQQAQHKFLVAVESMEPNNIV [TCF25]", "1 (yes)"],
  ["DKYCPLLIKEGGMPLLRDIIKMAT [ZER1]", "0 (no)"],
  ["CGKYFQGRGLKSHAYIHSVQFSHH [USP39]", "0 (no)"],
  ["LEVPAGSRLNLTGLGYFSCHSHTV [CCDC3]", "0 (no)"],
  ["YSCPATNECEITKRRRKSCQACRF [ESRRG]", "1 (yes)"],
  ["DEEEDFFLRGPSGPRFGPRNDKIK [VAMP4]", "1 (yes)"],
  ["IDFIGQVHKTKEQFGQDGPISVHC [PTPRD]", "0 (no)"],
  ["STATSITLTWDSGNPEPVSYYIIQ [PTPRD]", "0 (no)"],
  ["ETSVGTYESHSTSELEDLTEPEQR [TPD52L3]", "1 (yes)"],
  ["RSLNVASGSGKSGGYGFGRGRASG [KRT71]", "1 (yes)"],
  ["ESYESMELACPAERSGHVAVSDGR [KLHDC2]", "1 (yes)"],
  ["VKILEPKTKEVQHNCQLHRISFCA [GULP1]", "0 (no)"],
  ["SSSKGTIRLCDMRASALCDRHTKF [PPP2R2B]", "1 (yes)"],
  ["PSLPSCLCSFLLLLLLQVSSSYAG [MOG]", "0 (no)"],
  ["VLMCGFPFLLLFLGNFFTTLRVVH [TMEM120A]", "1 (yes)"],
  ["GTFQVNFYHDHTKIIICSQNEEYL [PLK2]", "0 (no)"],
  ["QFRVVRCWKMLSPGFDSSVYSDLC [ADAMTSL2]", "0 (no)"],
  ["LHSEFDEQHGKKVPTVSRPYSFIE [SEC22B]", "1 (yes)"],
  ["PASPERDYSPYYKTIEELRDKILT [KRT13]", "1 (yes)"],
  ["EQAPAPGEATAAPAPLCGGPSAEA [TBX6]", "1 (yes)"],
  ["CHSCQLYLPSTEFSVSSTSRRIYR [IQUB]", "0 (no)"],
  ["LEVAMEEEGLADEEKKLRRSQHAR [STK38L]", "1 (yes)"],
  ["LSLESSPDAPDHTSETSHSPLYAD [PLEKHN1]", "1 (yes)"],
  ["PLSDDHDEKYGVPSLEELGFDTDG [CRY1]", "1 (yes)"],
  ["ASLSNQECQLYPRRSQQQQVPVVD [SNURF]", "1 (yes)"],
  ["CMHEVHTFVSTCQAIDATVAAELL [HES6]", "0 (no)"],
  ["MMHGRSYSLASGAGGGGSKGNSLK [RAB40C]", "1 (yes)"],
  ["DFSRCDMDGATLCNCALEELRLVF [ELF3]", "0 (no)"],
  ["HVQKLSQECLKQLAIKKQQHIDNI [TRIM14]", "1 (yes)"],
  ["GCSLTADGLPLHFFIQTVRPKDTV [MYORG]", "0 (no)"],
  ["TAPEEVPKVSDQALVSAHSEWQRK [DMRTC1]", "1 (yes)"],
  ["PSYKVKVTGLNPKTKYILLMDIVP [TBX5]", "0 (no)"],
  ["DGYCMFNHVAVAARYAQQKHRIRR [HDAC6]", "1 (yes)"],
  ["LWDRAYVRLKPALQRLDFSVRGYM [RETREG3]", "0 (no)"],
  ["LELLEEVLALGLRTDVGITHQHWQ [RSAD1]", "0 (no)"],
  ["NFDNPWNFQNIPKETELPFPKQIL [MIA2]", "0 (no)"],
  ["GSGFGGGYGGGLGAGFGGGLGAGF [KRT16]", "0 (no)"],
  ["EHVLMFAKLALYPCASLLAFASTC [TMEM175]", "1 (yes)"],
  ["RKLSFSHSDHSSEMSLPEVQKDKY [SPATS1]", "1 (yes)"],
  ["EERVETTVTSLKTKVGGTNPNGGS [TPD52L1]", "1 (yes)"]
]}
